measurementParameters: human gut metagenome, 24 h, 2 µM; also: call rule not given here

{"compound": "CCN(CC)CCNC(=O)c1ccc(NC(C)=O)cc1 [ACECAINIDE]", "Bacterial Biotransformation": "Compound NOT metabolized"}
{"compound": "O=C1C(CC[S+]([O-])c2ccccc2)C(=O)N(c2ccccc2)N1c1ccccc1 (stereo not drawn)", "Bacterial Biotransformation": "Compound metabolized"}
{"compound": "CCc1oc2ccccc2c1C(=O)c1cc(Br)c(O)c(Br)c1", "Bacterial Biotransformation": "Compound metabolized"}
{"compound": "CN(C)CCOC(C)(c1ccccc1)c1ccccn1.O=C(O)CCC(=O)O (stereo not drawn) [DOXYLAMINE SUCCINATE]", "Bacterial Biotransformation": "Compound NOT metabolized"}
{"compound": "N=C(N)NC(=O)Cc1c(Cl)cccc1Cl", "Bacterial Biotransformation": "Compound NOT metabolized"}
{"compound": "Cc1ccccc1C(OCCN(C)C)c1ccccc1.O=C(O)CC(O)(CC(=O)O)C(=O)O (stereo not drawn) [ORPHENADRINE CITRATE]", "Bacterial Biotransformation": "Compound NOT metabolized"}
{"compound": "COc1ccnc(C[S+]([O-])c2nc3ccc(OC(F)F)cc3[nH]2)c1OC (stereo not drawn)", "Bacterial Biotransformation": "Compound metabolized"}
{"compound": "CCN(C)C(=O)Oc1cccc([C@H](C)N(C)C)c1.O=C(O)C(O)C(O)C(=O)O [RIVASTIGMINE TARTRATE]", "Bacterial Biotransformation": "Compound NOT metabolized"}
